propertyName: IC50 (µM)
// units = µM; emit number, no label

Exercise: Give the reported IC50 for C/C(=C\Cc1c(O)cc(O)c2c1C[C@@H](C)OC2=O)CC/C=C(\C)CC[C@H](O)C(C)(C)O (system: Tyrosine-protein phosphatase non-receptor type 6 (Homo sapiens, UniProt P29350)).
Sequence (P29350 whole entry): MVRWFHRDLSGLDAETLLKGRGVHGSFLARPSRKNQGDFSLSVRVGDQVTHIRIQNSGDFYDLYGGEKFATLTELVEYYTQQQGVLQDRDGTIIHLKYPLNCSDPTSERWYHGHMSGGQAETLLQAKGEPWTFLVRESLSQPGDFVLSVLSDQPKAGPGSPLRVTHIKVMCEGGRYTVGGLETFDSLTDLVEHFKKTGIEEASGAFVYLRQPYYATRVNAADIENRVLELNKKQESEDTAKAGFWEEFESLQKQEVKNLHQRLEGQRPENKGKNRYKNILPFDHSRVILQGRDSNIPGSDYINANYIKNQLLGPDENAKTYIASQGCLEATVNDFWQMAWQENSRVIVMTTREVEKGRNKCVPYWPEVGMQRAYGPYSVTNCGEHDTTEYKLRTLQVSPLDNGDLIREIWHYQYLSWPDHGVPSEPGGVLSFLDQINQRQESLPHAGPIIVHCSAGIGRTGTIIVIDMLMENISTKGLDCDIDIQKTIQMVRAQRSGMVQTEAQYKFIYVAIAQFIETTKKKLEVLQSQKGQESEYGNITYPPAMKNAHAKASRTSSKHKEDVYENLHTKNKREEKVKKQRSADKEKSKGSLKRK
Key: 8.8
